Reference source: patent US5767149A

# assay_notes: physchem
# Type: physicochemical
# measurement_conditions: water, pH 2
# Method: (c) 2-O-α-D-Glucosyl-L-ascorbic acid was compared respectively to the 6-O-α-D-glucosyl-L-ascorbic acid disclosed in Japanese Patent Publication No. 38,158/73, and L-ascorbic acid for their stability in aqueous solution. More particularly, each sample was adjusted to a concentration of 70 micromoles and to pH 7.0 or 2.0, placed in a cuvette, and measured for its absorbance at either 260 nm and pH 7.0 or at 245 nm and pH 2.0 while keeping the solution at 20° C. […]
Reported remaining at 0.5 h, 70 µM by item:

entry_smiles | u | remaining at 0.5 h, 70 µM
O=C1O[C@H]([C@@H](O)CO[C@H]2O[C@H](CO)[C@@H](O)[C@H](O)[C@H]2O)C(O)=C1O | % | 98
O=C1O[C@H]([C@@H](O)CO)C(O)=C1O | % | 97
O=C1O[C@H]([C@@H](O)CO)C(O)=C1O[C@H]1O[C@H](CO)[C@@H](O)[C@H](O)[C@H]1O | % | 100
